Value source: patent US10975042B2

Below, each of the compounds is paired with its reported Purity after 1 year from purification value.
TEST SUMMARY: Long-term storage stability of NCA, purity by DSC
Assay type: physicochemical
MEASUREMENT PARAMETERS: storage at −20±5° C., 1 year; DSC
Write down the value, and be sure its unit follows.

Solved cases (2 shown):
compound=O=C1CNC(=O)O1 endpoint="Purity after 1 year from purification" result="99.12 mol %"
compound="CC(C)CC1NC(=O)OC1=O (stereo not shown)" endpoint="Purity after 1 year from purification" result="98.90 mol %"

The measured Purity after 1 year from purification associated with O=C1CCNC(=O)O1 reads 99.33 mol %

The measured Purity after 1 year from purification associated with O=C1NC(Cc2ccccc2)C(=O)O1 (stereo not shown) reads 98.86 mol %

The measured Purity after 1 year from purification associated with CC(C)(C)OC(=O)CC1NC(=O)OC1=O (stereo not shown) reads 99.16 mol %

The measured Purity after 1 year from purification associated with O=C(CC1NC(=O)OC1=O)OCc1ccccc1 (stereo not shown) reads 99.26 mol %

The measured Purity after 1 year from purification associated with CC(=O)N1CC(=O)OC1=O reads 99.23 mol %
